# target desc: tau peptide R3 (Homo sapiens)
# Construct: R3 (^306VQIVYK PVDLSK VTSKCG SLGNIH HKPGGG Q^336) and rabbit anti-tau antibody were purchased from MuJin; purchased MuJin
# Sequence (P10636 623-653 limits assumed): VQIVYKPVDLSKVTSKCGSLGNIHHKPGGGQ
# assay comment: ThS assay, heparin-induced R3 aggregation (kinetics and dose-response)
# Type: biochemical
# measurement parameters: 15 μM R3, 3.8 μM heparin, 3 h at 37 °C, ThS fluorescence
readout label: IC50 (µM)
Enter your answer as a number in µM; do not include the unit.

CN1CCN(C(=O)c2cc(O)c(O)c(O)c2)CCN(C)CCN(C(=O)c2cc(O)c(O)c(O)c2)CC1 :: 5.5

Noted for `O=C(c1cc(O)c(O)c(O)c1)N1CCN(C(=O)c2cc(O)c(O)c(O)c2)CCN(C(=O)c2cc(O)c(O)c(O)c2)CCN(C(=O)c2cc(O)c(O)c(O)c2)CC1` : its IC50 reads 3.8

----------
# target desc: R3 fibrils (Homo sapiens)
# Construct: R3 (^306VQIVYK PVDLSK VTSKCG SLGNIH HKPGGG Q^336) and rabbit anti-tau antibody were purchased from MuJin; purchased MuJin
# Sequence (P10636 623-653 limits assumed): as above
# assay comment: TEM of Cu2+-promoted R3 fibrils
# Assay type: biochemical
# measurement parameters: R3 15 μM, Cu2+ 3.8 μM, heparin 3.8 μM, compound 10 μM, Hepes pH 7.4
readout label: morphology of Cu2+-promoted R3 fibrils (TEM)

O=C(O)c1cc(O)c(O)c(O)c1 [GA, gallic acid, reference compound] :: small
CN1CCN(C)CCN(C)CCN(C)CC1 [4ME, reference compound] :: small
